Origin of measurements: patent US8618169B2

# TARGET: KCNQ2/Q3 (Homo sapiens, UniProt O43525+O43526)
# METHOD SUMMARY: KCNQ2/Q3 current in Xenopus oocytes, two-electrode voltage-clamp
# Format: cell-based
# Set-up: expressed in transfected cells; host or cells: Xenopus oocytes (cRNA microinjection)
# CONDITION SET: increasing concentrations; read-out: EC50 of hyperpolarization of the oocyte resting membrane potential
MEASUREMENT TYPE: EC50 (µM)
Your answer should be a plain number; it is taken to be in µM.

Fill in the blank: the reported EC50 of `Cc1ccc(Cl)c(Nc2ccccc2C(=O)O)c1Cl` is ____. 11.7
